Data credit: patent US9096500B2

Molecular target: Nav1.7 (or SCN9A) channel (Homo sapiens)
Construct: expressed in transfected cells
Sequence (Q15858 whole entry): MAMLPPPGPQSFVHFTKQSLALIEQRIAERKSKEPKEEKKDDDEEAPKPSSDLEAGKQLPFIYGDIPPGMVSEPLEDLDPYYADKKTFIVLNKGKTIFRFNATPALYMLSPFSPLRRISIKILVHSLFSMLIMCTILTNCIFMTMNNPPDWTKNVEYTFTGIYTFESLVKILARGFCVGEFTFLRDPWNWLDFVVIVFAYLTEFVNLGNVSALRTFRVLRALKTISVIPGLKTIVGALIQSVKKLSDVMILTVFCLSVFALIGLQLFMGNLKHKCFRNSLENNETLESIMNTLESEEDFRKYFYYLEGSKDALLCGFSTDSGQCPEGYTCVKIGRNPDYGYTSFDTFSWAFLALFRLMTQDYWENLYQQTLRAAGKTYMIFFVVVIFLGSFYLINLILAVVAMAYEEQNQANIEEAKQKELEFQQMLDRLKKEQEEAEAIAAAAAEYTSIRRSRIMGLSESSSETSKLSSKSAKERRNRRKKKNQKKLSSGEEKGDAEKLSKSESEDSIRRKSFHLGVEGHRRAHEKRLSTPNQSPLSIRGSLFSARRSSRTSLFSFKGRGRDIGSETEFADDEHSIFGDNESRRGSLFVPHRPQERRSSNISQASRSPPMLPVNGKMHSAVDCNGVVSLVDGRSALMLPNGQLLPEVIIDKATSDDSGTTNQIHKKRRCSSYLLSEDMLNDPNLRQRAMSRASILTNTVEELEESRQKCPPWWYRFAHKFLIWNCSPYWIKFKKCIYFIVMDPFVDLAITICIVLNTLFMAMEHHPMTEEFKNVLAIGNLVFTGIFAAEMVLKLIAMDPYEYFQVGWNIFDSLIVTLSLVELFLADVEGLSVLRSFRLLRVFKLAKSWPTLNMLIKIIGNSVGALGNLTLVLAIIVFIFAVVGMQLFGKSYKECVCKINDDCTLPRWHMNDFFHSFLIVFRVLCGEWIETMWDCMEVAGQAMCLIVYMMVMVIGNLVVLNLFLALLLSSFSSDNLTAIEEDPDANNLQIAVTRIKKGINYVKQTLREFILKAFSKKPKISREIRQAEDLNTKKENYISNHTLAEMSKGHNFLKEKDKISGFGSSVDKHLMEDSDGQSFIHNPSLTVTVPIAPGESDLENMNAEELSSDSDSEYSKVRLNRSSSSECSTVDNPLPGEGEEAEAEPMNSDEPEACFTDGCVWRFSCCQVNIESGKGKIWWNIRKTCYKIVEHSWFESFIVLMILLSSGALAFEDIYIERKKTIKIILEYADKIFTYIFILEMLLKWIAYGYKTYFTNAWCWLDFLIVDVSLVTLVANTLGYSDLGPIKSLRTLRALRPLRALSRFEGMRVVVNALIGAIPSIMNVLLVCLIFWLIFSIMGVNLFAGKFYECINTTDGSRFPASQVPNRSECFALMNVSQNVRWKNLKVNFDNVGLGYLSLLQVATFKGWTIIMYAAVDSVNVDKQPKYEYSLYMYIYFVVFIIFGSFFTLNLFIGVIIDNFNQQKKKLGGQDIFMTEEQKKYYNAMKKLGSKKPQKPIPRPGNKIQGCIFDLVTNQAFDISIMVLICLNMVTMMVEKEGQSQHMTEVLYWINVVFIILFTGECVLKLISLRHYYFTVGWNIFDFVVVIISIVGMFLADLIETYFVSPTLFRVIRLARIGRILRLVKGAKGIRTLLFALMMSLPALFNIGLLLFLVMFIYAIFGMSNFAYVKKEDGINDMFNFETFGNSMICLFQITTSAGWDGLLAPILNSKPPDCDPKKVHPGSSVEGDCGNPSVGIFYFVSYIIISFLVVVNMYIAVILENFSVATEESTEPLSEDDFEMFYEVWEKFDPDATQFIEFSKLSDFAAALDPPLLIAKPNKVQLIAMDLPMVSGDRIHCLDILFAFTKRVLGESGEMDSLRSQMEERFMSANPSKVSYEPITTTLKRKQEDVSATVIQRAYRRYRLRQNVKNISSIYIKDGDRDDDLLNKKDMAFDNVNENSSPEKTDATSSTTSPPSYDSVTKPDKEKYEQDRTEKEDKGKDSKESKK
Assay: Nav1.7 (hSCN9A) electrophysiology assay, PatchXpress platform
Type: cell-based
Details: estimated IC50 from single point electrophysiology data, HEK cells stably expressing hSCN9A, held at V1/2 of inactivation, read-out: Nav1.7 EIC50
pIC50: −log10 of the molar value.
parameter: pIC50

These solved cases illustrate the format of a correct answer.
CS(=O)(=O)NC(=O)c1ccc(OCc2ccccc2OC(F)(F)F)c(C#N)c1 ... 5.00
CS(=O)(=O)NC(=O)c1cc(F)c(OCc2ccc(OC(F)F)cc2)cc1F ... 5.59
CS(=O)(=O)NC(=O)c1cc(Cl)c(OCc2ccc(-c3ccccc3)cc2)cc1F ... 6.21
CS(=O)(=O)NC(=O)c1ccc(OCc2cccc(Cl)c2)c(C#N)c1 ... 5.01

(P) CS(=O)(=O)NC(=O)c1cc(F)c(OCc2ccc(F)cc2Cl)cc1F
(Q) CS(=O)(=O)NC(=O)c1cc(F)c(OCc2ccccc2OC(F)F)cc1F
// query Please indicate which item has the smaller measured pIC50: P versus Q Your answer should be the label attached to the chosen record.
// result Q
